# credit: PubChem BioAssay

measured_on: Dihydroorotate dehydrogenase (quinone), mitochondrial (Plasmodium falciparum (isolate 3D7)) (UniProt Q08210)
Sequence (Q08210 whole entry, looked up): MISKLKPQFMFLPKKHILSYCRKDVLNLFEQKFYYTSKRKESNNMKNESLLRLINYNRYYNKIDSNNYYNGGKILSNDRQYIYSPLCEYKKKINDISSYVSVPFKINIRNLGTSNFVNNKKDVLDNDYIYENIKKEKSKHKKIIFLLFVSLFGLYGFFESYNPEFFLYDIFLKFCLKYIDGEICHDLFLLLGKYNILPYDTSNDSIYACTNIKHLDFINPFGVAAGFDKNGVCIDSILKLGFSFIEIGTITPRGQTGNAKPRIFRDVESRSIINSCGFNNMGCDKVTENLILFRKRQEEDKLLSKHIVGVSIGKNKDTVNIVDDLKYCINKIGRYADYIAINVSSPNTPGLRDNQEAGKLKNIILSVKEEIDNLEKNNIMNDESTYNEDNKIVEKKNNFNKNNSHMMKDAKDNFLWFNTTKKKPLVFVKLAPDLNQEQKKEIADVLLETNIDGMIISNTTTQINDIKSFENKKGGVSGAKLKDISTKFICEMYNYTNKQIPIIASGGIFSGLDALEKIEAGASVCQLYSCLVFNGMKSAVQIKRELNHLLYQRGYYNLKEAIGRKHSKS
procedure_summary: PfDHODH enzyme inhibitors, primary screen, biochemical, C-terminal His tag, absorbance 600 nm (AID 1175);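 note: recombinant parasite enzyme with a five histidine tag at its C terminus; test concentration not given here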
measurement_context: DCIP absorbance 600 nm, higher = more signal, called active from +8 up or from −8 down
Where composite z-score equals or exceeds -0.3, the correct label is Yes; where it does not, the label is No.

In plain terms: is recorded composite z-score at least -0.3 for CC(=O)OC[C@H]1O[C@H](CC=NOC(C)CN2CCCCc3nc(C)c(C)cc32)C=C[C@@H]1OC(C)=O (some centres undefined) ?
No

In plain terms: is recorded composite z-score at least -0.3 for CCCNC(=O)OC[C@H]1O[C@H](CCON=C[C@@H](NS(=O)(=O)c2ccc(C)cc2)[C@H](C)C=CCC(=O)OC)C=C[C@@H]1Oc1ccc(OC)cc1 ?
Yes

In plain terms: is recorded composite z-score at least -0.3 for CCc1cc2c(nc1CC)CCN(CCC(C)=NO[C@@H]1O[C@H](COC(C)=O)[C@@H](OC(C)=O)[C@H](OC(C)=O)[C@H]1OC(C)=O)C2 ?
No

In plain terms: is recorded composite z-score at least -0.3 for CC(CCN1CCCCc2nc(C)c(C)cc21)=NO[C@H](C)c1cn([C@@H]2COC[C@H]2O)nn1 ?
Yes

In plain terms: is recorded composite z-score at least -0.3 for CC1(C)O[C@H]2O[C@H]([C@H](O)CON=C3[C@H]4CCn5c(=O)n(-c6ccccc6)c(=O)n5[C@H]4[C@H](O)[C@@H]4O[C@H]34)[C@H](O)[C@H]2O1 ?
No

In plain terms: is recorded composite z-score at least -0.3 for CCOC(=O)CCN1C(=O)[C@H]2[C@H]3[C@H](O)[C@H](O)CC(=NOCC=C(C)CCC=C(C)C)[C@@H]3CC[C@H]2C1=O ?
Yes

In plain terms: is recorded composite z-score at least -0.3 for C=CC[C@@H]1C=C[C@H](ON=C(C)CCN2CCCCc3nc(C)c(C)cc32)[C@@H](CO)O1 ?
No

In plain terms: is recorded composite z-score at least -0.3 for C[C@@H](c1ccccc1)N1C(=O)[C@H]2[C@H]3[C@H](O)[C@H](O)CC(=NNC(=O)OCc4ccccc4)[C@@H]3CC[C@H]2C1=O ?
No

In plain terms: is recorded composite z-score at least -0.3 for COc1ccc(COC(=O)NN=C2C[C@@H](O)[C@@H](O)[C@@H]3[C@@H]4C(=O)N(Cc5ccccc5)C(=O)[C@@H]4CC[C@@H]23)cc1 ?
Yes

In plain terms: is recorded composite z-score at least -0.3 for CCOC(=O)[C@H](Cc1ccccc1)NC(=O)CCC1CC(OC(=O)NCc2cccc3ccccc23)CC2(CCCC(COC(=O)NCCOc3ccccc3)O2)O1 (some centres undefined) ?
No

In plain terms: is recorded composite z-score at least -0.3 for COc1ccc(O[C@H]2C=C[C@@H](c3ccccc3)O[C@@H]2COC(=O)CCC(C)=NOC[C@@H](O)COCc2ccco2)cc1 ?
No

In plain terms: is recorded composite z-score at least -0.3 for C#CCCCON=C1C[C@@H](O)[C@@H](O)[C@@H]2[C@@H]3C(=O)N(CC)C(=O)[C@@H]3CC[C@H]12 ?
Yes

In plain terms: is recorded composite z-score at least -0.3 for CO[C@H]1COC(=O)[C@H](CCSC)NC(=O)CC=C[C@@H](C)[C@H](OC)COC(=O)[C@@H](OCc2ccccc2)C=C[C@@H]1C ?
No

In plain terms: is recorded composite z-score at least -0.3 for COC(=O)[C@H](C)NC(=O)CCC1CC(OC(=O)NCc2ccc3c(c2)OCO3)CC2(CCCC(COC(=O)NCCc3ccc(Cl)cc3)O2)O1 (some centres undefined) ?
Yes

====

measured_on: Carbonic anhydrase 2 (Homo sapiens)
procedure_summary: CAII small-molecule binders, profiling panel, biochemical, small-molecule microarray, Alexa647-labelled CAII (AID 1122)
measurement_context: CAII-A647 binding fluorescence, higher = more signal
Kindly supply the reported composite z-score values for the records listed here.
Give the value as a plain number.

Please look at CO[C@@H]1COC(=O)[C@@H]2CCCN2C(=O)[C@@H](C)COC(=O)CCC[C@H]1C and tell me its recorded composite z-score on Carbonic anhydrase 2 (Homo sapiens).
-0.126

Please look at COC(=O)[C@H](C)NC(=O)CCC1CC(OC(=O)NCc2cccc3ccccc23)CC2(CCCC(COC(=O)NCCCN3CCCC3=O)O2)O1 (stereo partly specified) and tell me its recorded composite z-score on Carbonic anhydrase 2 (Homo sapiens).
0.378

Please look at CC(C)[C@@H](OCc1ccccc1)[C@H](C)C=NOC[C@@H](O)[C@H]1O[C@@H]2OC(C)(C)O[C@@H]2[C@H]1O and tell me its recorded composite z-score on Carbonic anhydrase 2 (Homo sapiens).
-0.0043

Please look at CCN1C(=O)[C@H]2[C@H]3[C@H](O)[C@H](O)CC(=NO[C@H](C)c4cn([C@@H]5COC[C@H]5O)nn4)[C@@H]3CC[C@H]2C1=O and tell me its recorded composite z-score on Carbonic anhydrase 2 (Homo sapiens).
-0.281

Please look at CCOC(=O)[C@H](CC(C)C)NC(=O)CCC1CC(OC(=O)NCc2ccc3c(c2)OCO3)CC2(CCCC(COC(=O)NCCc3ccccc3OC)O2)O1 (stereo partly specified) and tell me its recorded composite z-score on Carbonic anhydrase 2 (Homo sapiens).
0.127

Please look at CCOC(=O)NN=C1C[C@@H](O)[C@@H](O)[C@@H]2[C@@H]3C(=O)N(CC)C(=O)[C@@H]3CC[C@H]12 and tell me its recorded composite z-score on Carbonic anhydrase 2 (Homo sapiens).
0.448

Please look at CC(C)=NO[C@H](C)c1cn([C@@H]2COC[C@H]2O)nn1 and tell me its recorded composite z-score on Carbonic anhydrase 2 (Homo sapiens).
0.0793

Please look at CC(CCN1CCCc2nc(C)c(C)cc21)=NOC[C@@H](O)COCc1ccco1 and tell me its recorded composite z-score on Carbonic anhydrase 2 (Homo sapiens).
-0.702

Please look at C=CC[C@@H]1C=C[C@H](ON=C(C)CCN2CCCc3nc(C)c(C)cc32)[C@@H](CO)O1 and tell me its recorded composite z-score on Carbonic anhydrase 2 (Homo sapiens).
-0.1

Please look at O=C(NN=C1C[C@@H](O)[C@@H](O)[C@@H]2[C@@H]3C(=O)N(c4ccc(F)cc4F)C(=O)[C@@H]3CC[C@H]12)OCc1ccccc1 and tell me its recorded composite z-score on Carbonic anhydrase 2 (Homo sapiens).
0.477

Please look at C=CC[C@@H]1C=C[C@H](ON=C(C)CCN2CCCCc3nc(C)c(C)cc32)[C@@H](CO)O1 and tell me its recorded composite z-score on Carbonic anhydrase 2 (Homo sapiens).
0.226

Please look at CCOC(=O)[C@H](Cc1ccccc1)NC(=O)CCC1CC(OC(=O)NCc2ccc3c(c2)OCO3)CC2(CCCC(COC(=O)NCCc3ccc(Cl)cc3)O2)O1 (stereo partly specified) and tell me its recorded composite z-score on Carbonic anhydrase 2 (Homo sapiens).
0.151

Please look at CCOC(=O)[C@H](Cc1ccccc1)NC(=O)CCC1CC(OC(=O)NCc2ccc3c(c2)OCO3)CC2(CCCC(COC(=O)NCCOc3ccccc3)O2)O1 (stereo partly specified) and tell me its recorded composite z-score on Carbonic anhydrase 2 (Homo sapiens).
0.109

Please look at CC(CCN1CCc2nc(-c3ccccc3)c(-c3ccccc3)cc2C1)=NO[C@@H](C)c1cc(-c2c(C)cc(C)cc2C)no1 and tell me its recorded composite z-score on Carbonic anhydrase 2 (Homo sapiens).
0.0148

Please look at COC(=O)[C@@H]1CC[C@H](C)[C@@H](c2ccc(Br)cc2)N1C[C@@H](O)CN=[N+]=[N-] and tell me its recorded composite z-score on Carbonic anhydrase 2 (Homo sapiens).
-0.0121

Please look at Cc1cc2c(nc1C)CCCCN2CC(O)CN1CCCc2nc(-c3ccc(Br)cc3)ccc21 (stereo unspecified) and tell me its recorded composite z-score on Carbonic anhydrase 2 (Homo sapiens).
0.493

====

Tested on: Wnt5a (protein binding on small-molecule microarray)
procedure_summary: Wnt5a binders on small-molecule microarray, primary screen, biophysical, 635/667 nm fluorescence (AID 1142);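 note: fluorescence read at 667 nm with signal to noise per printed feature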
measurement_context: 635 nm fluorescence, higher = more signal
Note: every record was labeled by where its composite z-score sits among interval 1 = under 0.03, interval 2 = from 0.03 up to 0.2, interval 3 = 0.2 and over

State the band of O=C(NCCC[N+]1=CC=NC1c1ccccc1)N1CCCc2nc(-c3ccc(Br)cc3)ccc21 (stereo unspecified)
interval 1

State the band of COC(=O)[C@H](C)NC(=O)CC=C[C@@H](C)[C@@H]1C=C[C@H](O)[C@@H](CO)O1
interval 3

State the band of COC(=O)CC=C[C@@H](C)[C@@H](C=NOC[C@@H](O)COCc1ccco1)NS(=O)(=O)c1ccc(C)cc1
interval 2

State the band of C=CCOCC1CN2[C@@H](CC[C@@H](C)[C@@H]2c2ccc(Br)cc2)C(=O)O1 (stereo partly specified)
interval 1

State the band of O=C1C=C[C@@H](O)[C@@H]2[C@@H]3C(=O)N(c4cccc(Oc5ccccc5)c4)C(=O)[C@@H]3CC[C@@H]12
interval 1

State the band of CCN(CC)CC(O)CN1CCCCc2nc(C)c(C)cc21 (stereo unspecified)
interval 2

State the band of CO[C@@H]1COC(=O)[C@H](CCSC)NC(=O)CC=C[C@@H](C)COC(=O)[C@@H]2CCCN2C(=O)CC=C[C@H]1C
interval 2

State the band of CC(=O)OC[C@H]1O[C@H](CC=NOC(C)CN2CCCc3nc(C)c(C)cc32)C=C[C@@H]1OC(C)=O (stereo partly specified)
interval 3

State the band of CC(C)=CCCC(C)=CCON=C1C[C@@H](O)[C@@H](O)[C@@H]2[C@@H]3C(=O)N(c4cccc(Oc5ccccc5)c4)C(=O)[C@@H]3CC[C@H]12
interval 1

State the band of CCOC(=O)[C@H](CC(C)C)NC(=O)CCC1CC(OC(=O)NCCc2ccc(F)cc2)CC2(CCCC(COC(=O)NCCOC)O2)O1 (stereo partly specified)
interval 3

State the band of CC(=O)OC[C@H]1O[C@@H](ON=C(C)CCN2CCCCc3nc(C)c(C)cc32)[C@H](OC(C)=O)[C@@H](OC(C)=O)[C@@H]1OC(C)=O
interval 3

State the band of C=CC[C@@H]1C=C[C@H](ON=CC[C@@H]2C=C[C@H](OC(C)=O)[C@@H](COC(C)=O)O2)[C@@H](CO)O1
interval 3

State the band of CCOC(=O)[C@H](Cc1ccccc1)NC(=O)CCC1CC(OC(=O)NCc2ccc3c(c2)OCO3)CC2(CCCC(COC(=O)NCCc3ccc(Cl)cc3)O2)O1 (stereo partly specified)
interval 2

State the band of CON=C1c2cc(OC)ccc2O[C@H](c2cccc(OC)c2)[C@H]1O
interval 1

State the band of C[C@H]1CC[C@H]2C(=O)N[C@H](Cc3ccccc3)C(=O)N2[C@@H]1c1ccccc1
interval 2

State the band of CC(C)(C)N1C(=O)[C@H]2[C@H]3[C@H](O)[C@H](O)CC(=NNC(=O)OCc4ccccc4)[C@H]3CC[C@H]2C1=O
interval 1
